# Measured on: mGluR5 (Homo sapiens, UniProt P41594)
# Construct: expressed in transfected cells
# Sequence (P41594 21-1180 isoform P41594-2 limits assumed): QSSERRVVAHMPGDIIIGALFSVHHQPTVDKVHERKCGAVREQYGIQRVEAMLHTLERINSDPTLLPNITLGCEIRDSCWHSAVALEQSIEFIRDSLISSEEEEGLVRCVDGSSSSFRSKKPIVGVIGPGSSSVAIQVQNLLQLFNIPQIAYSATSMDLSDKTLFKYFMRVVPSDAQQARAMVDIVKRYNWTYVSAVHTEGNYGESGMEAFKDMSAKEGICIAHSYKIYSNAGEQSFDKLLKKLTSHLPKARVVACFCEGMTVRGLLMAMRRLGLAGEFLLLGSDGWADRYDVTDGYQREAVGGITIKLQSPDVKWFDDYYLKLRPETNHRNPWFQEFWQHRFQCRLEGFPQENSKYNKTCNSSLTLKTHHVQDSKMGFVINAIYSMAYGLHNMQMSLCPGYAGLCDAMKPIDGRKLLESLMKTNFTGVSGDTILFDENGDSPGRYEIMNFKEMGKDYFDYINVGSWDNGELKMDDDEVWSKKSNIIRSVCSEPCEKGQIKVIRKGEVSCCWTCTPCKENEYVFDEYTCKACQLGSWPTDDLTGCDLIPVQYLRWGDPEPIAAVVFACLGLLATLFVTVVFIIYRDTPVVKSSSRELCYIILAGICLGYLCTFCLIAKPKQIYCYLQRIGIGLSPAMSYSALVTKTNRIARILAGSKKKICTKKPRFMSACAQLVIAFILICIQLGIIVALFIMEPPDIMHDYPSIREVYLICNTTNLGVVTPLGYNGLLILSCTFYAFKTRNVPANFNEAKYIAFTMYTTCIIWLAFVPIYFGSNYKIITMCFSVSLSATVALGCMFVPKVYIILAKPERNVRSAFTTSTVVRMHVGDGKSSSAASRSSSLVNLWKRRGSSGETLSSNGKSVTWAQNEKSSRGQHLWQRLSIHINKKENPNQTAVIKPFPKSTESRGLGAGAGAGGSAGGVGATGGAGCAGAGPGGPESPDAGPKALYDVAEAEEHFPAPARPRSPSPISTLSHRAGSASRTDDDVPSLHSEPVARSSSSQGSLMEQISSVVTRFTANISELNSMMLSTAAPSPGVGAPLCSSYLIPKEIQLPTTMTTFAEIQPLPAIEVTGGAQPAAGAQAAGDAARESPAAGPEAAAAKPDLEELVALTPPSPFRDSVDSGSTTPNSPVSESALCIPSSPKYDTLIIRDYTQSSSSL
# Experiment notes: inhibition of the glutamate (agonist) induced elevation of the inositol phosphate turnover
# Format: cell-based
# Condition: inhibition of glutamate induced elevation of inositol phosphate turnover at 0.1 μM
Attribute: inhibition at 0.1 µM
Give a bare numeral; the unit % is implied.

Sample records with inhibition at 0.1 µM:
CCCn1c(-c2cnc(Nc3cc(C)no3)c(Cl)c2)nc2cccc(Cl)c21 [Example 73]    98
COc1ccc(Nc2ccc(-c3nc4cccc(Cl)c4n3CC(C)C)cn2)cc1 [Example 110]    95
CCCn1c(-c2cnc(Nc3ccc(C)nc3)c(Cl)c2)nc2cc(C(F)(F)F)ccc21 [Example 21]    65

According to the records, this compound CCCn1c(-c2cnc(Nc3ccc(C#N)nc3)c(Cl)c2)nc2cccc(Cl)c21 [Example 75b] displays inhibition at 0.1 µM of 99

According to the records, this compound Cc1ccc(Nc2ncc(-c3nc4cccc5c4n3CCC5)cc2Cl)cn1 [Example 31] displays inhibition at 0.1 µM of 90

According to the records, this compound CCCn1c(-c2cnc(Nc3ccc(C)nc3)c(Cl)c2)nc2c(C)ccc(C)c21 [Example 29] displays inhibition at 0.1 µM of 99

According to the records, this compound CCCn1c(-c2cnc(Nc3ccc(Cl)cc3)c(Cl)c2)nc2cccc(Cl)c21 [Example 52] displays inhibition at 0.1 µM of 99

According to the records, this compound CCCn1c(-c2cnc(Nc3ccc(OC)cc3)nc2)nc2ccc(F)cc21 [Example 93] displays inhibition at 0.1 µM of 34
